Biological target: A2A (Homo sapiens, UniProt P29274)
Construct: purchased NIMH Psychoactive Drug Screening Program (PDSP)
Sequence (P29274 whole entry): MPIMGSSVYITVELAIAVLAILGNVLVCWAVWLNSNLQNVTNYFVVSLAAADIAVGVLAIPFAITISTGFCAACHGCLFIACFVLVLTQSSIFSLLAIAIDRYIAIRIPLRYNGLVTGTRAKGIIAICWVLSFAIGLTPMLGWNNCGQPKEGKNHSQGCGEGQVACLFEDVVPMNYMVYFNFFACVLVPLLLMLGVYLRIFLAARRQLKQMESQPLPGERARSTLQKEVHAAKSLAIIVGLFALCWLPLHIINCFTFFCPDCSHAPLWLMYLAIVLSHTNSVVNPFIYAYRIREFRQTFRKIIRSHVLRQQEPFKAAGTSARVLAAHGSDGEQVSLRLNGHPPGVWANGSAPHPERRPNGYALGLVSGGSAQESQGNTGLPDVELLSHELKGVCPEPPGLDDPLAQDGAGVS
Assay: PDSP primary binding A2A
Conditions: primary binding, 10,000 nM; last figure of the line = mean of the 4 before it
Quick list: A2A, PDSP raw data, mean per entry.
Just the number in %, nothing appended.

As a guide, the following entries are already answered.
INSERT INTO measurements (smiles_text, value) VALUES
  ('C[C@H]1N=C(c2ccccc2F)c2cc(Cl)ccc2-n2cnc(-c3nc(C4CC4)no3)c21', 19.95),
  ('C#Cc1ccc2c(c1)C(c1ccccc1Cl)=N[C@H](C)c1c(C(=O)NC)ncn1-2', -13.5),
  ('CCc1noc(-c2ncn3c2[C@@H](C)N=C(c2ccccc2F)c2cc(C4CC4)ccc2-3)n1', 27.25);

Fill in the recorded A2A, PDSP raw data, mean for this compound, with A2A (Homo sapiens, UniProt P29274) as test system: "CCc1noc(-c2ncn3c2[C@@H](C)N=C(c2ccccc2F)c2cc(-c4ccccc4)ccc2-3)n1"
19.84
